# LC retention time listing for each entry below
Assay: RP, Thermo Scientific Hypersil GOLD, 150 × 2.1 mm, 1.9 µm, 0.5 mL/min, estimated dead time 0.66 min; A: water + 0.1% formic acid, pH 3; B: acetonitrile + 0.1% formic acid, pH 3; gradient (min/%B) 0/0 2/0 13/100 15.5/100 19/0
Conditions: stereoisomer not certain
All answers are understood in min, so give the number only.

Below, each entry is followed by its recorded LC retention time result.
Asked: Which LC retention time value is on record for CCCCCCCCC(=O)OC(CC(=O)[O-])C[N+](C)(C)C (stereo unspecified) [nonanoylcarnitine] ?
Given back: 8.1

Asked: Which LC retention time value is on record for CCC(C)(O)C(=O)O (stereo unspecified) [2-hydroxy-2-methylbutyric acid (2-hydroxyisovaleric acid)] ?
Given back: 4.6

Asked: Which LC retention time value is on record for NC(Cc1ccccc1)C(=O)O (stereo unspecified) [phenylalanine] ?
Given back: 4.4

---
Asked: Which LC retention time value is on record for C[n+]1cccc(C(=O)[O-])c1 [trigonelline] ?
Given back: 0.9

Asked: Which LC retention time value is on record for O=C(OC1OC(C(=O)O)C(O)C(O)C1O)c1c[nH]c2ccccc12 (stereo unspecified) [3-indole carboxylic acid glucuronide] ?
Given back: 6.3

Asked: Which LC retention time value is on record for CN1CC(=O)NC1=N [creatinine] ?
Given back: 0.9

Asked: Which LC retention time value is on record for CN(CC(=O)O)C(=N)N [creatine] ?
Given back: 1

Asked: Which LC retention time value is on record for O=C1CCNC(=O)N1 [5,6-dihydrouracil] ?
Given back: 1.1

Asked: Which LC retention time value is on record for NC(CO)C(=O)O (stereo unspecified) [serine] ?
Given back: 0.9

Asked: Which LC retention time value is on record for O=C(O)Cc1c[nH]c2ccc(O)cc12 [5-hydroxyindoleacetic acid] ?
Given back: 5.7

Asked: Which LC retention time value is on record for COC(=O)CCCCC(=O)O [mono-methyl-adipate] ?
Given back: 6.3

Asked: Which LC retention time value is on record for CCCCCCCCC=CCCCCCCCC(=O)OCC(O)COP(=O)([O-])OCC[N+](C)(C)C (stereo unspecified) [1-oleoylglycerophosphocholine LysoPC(18:1)] ?
Given back: 12

====

Experiment: RP, Thermo Scientific Hypersil GOLD, 150 × 2.1 mm, 1.9 µm, 0.5 mL/min, estimated dead time 0.66 min; A: water + 0.1% formic acid, pH 3; B: acetonitrile + 0.1% formic acid, pH 3; gradient (min/%B) 0/0 2/0 13/100 15.5/100 19/0
Details: stereoisomer not certain
// NB: equality with 4 min counts as false; only LC retention time strictly below is true

Would you please look over these solved cases?
Asked: Is LC retention time strictly under 4 min for the entry NC(N)=NCC(=O)O [guanidoacetic acid] ?
Given back: true

Asked: Is LC retention time strictly under 4 min for the entry Nc1nc2nc[nH]c2c(=O)[nH]1 [guanine] ?
Given back: true

---
Asked: Is LC retention time strictly under 4 min for the entry CC(C)CC(N)C(=O)O (stereo unspecified) [leucine] ?
Given back: true

Asked: Is LC retention time strictly under 4 min for the entry CNc1nc2c(ncn2C2OC(CO)C(O)C2O)c(=O)[nH]1 (stereo unspecified) [N2-methylguanosine] ?
Given back: false

====

# LC retention time listing for each entry below
Assay: RP, Thermo Scientific Hypersil GOLD, 150 × 2.1 mm, 1.9 µm, 0.5 mL/min, estimated dead time 0.66 min; A: water + 0.1% formic acid, pH 3; B: acetonitrile + 0.1% formic acid, pH 3; gradient (min/%B) 0/0 2/0 13/100 15.5/100 19/0
Conditions: stereoisomer not certain
All answers are understood in min, so give the number only.

Asked: Which LC retention time value is on record for CC12CCC(=O)C=C1CCC1C2CCC2(C)C(C(=O)CO)CCC12 (centres undefined) ?
Given back: 9.6

Asked: Which LC retention time value is on record for `O=C(O)c1cccnc1` ?
Given back: 1.1

====

Test: RP, Thermo Scientific Hypersil GOLD, 150 × 2.1 mm, 1.9 µm, 0.5 mL/min, estimated dead time 0.66 min; A: water + 0.1% formic acid, pH 3; B: acetonitrile + 0.1% formic acid, pH 3; gradient (min/%B) 0/0 2/0 13/100 15.5/100 19/0
Settings: stereoisomer not certain
Would you mind labelling by LC retention time? At or over 6 min is rule met, under is rule not met.

Would you please look over these solved cases?
Asked: Assess whether reported LC retention time for `O=C(O)CNC(=O)C=Cc1ccccc1` sits at 6 min or higher.
Given back: rule met

Asked: Assess whether reported LC retention time for `CC=C(C)C(=O)NCC(=O)O` sits at 6 min or higher.
Given back: rule not met

Asked: Assess whether reported LC retention time for NC(N)=NCCCC(N)C(=O)O (stereo not given) sits at 6 min or higher.
Given back: rule not met

Asked: Assess whether reported LC retention time for `O=C(O)c1cc(=O)c2cccc(O)c2[nH]1` sits at 6 min or higher.
Given back: rule not met

---
Asked: Assess whether reported LC retention time for C[N+]1(C)CCCC1C(=O)[O-] (stereo not given) [stachydrine (proline betaine)] sits at 6 min or higher.
Given back: rule not met

Asked: Assess whether reported LC retention time for CCCCCC=CC(=O)OC(CC(=O)[O-])C[N+](C)(C)C (stereo not given) sits at 6 min or higher.
Given back: rule met

Asked: Assess whether reported LC retention time for CC(=O)NCCc1c[nH]c2ccc(O)cc12 [N-acetyl-5-hydroxytryptamine (N-acetyl-serotonin)] sits at 6 min or higher.
Given back: rule not met

Asked: Assess whether reported LC retention time for `Cc1cnc(=O)[nH]c1N` sits at 6 min or higher.
Given back: rule not met

Asked: Assess whether reported LC retention time for Cc1cc2c(cc1C)N(CC(O)C(O)C(O)COP(=O)(O)O)c1[nH]c(=O)[nH]c(=O)c1N2 (stereo not given) sits at 6 min or higher.
Given back: rule not met

====

Test: RP, Thermo Scientific Hypersil GOLD, 150 × 2.1 mm, 1.9 µm, 0.5 mL/min, estimated dead time 0.66 min; A: water + 0.1% formic acid, pH 3; B: acetonitrile + 0.1% formic acid, pH 3; gradient (min/%B) 0/0 2/0 13/100 15.5/100 19/0
Conditions: stereoisomer not certain
// NB: equality with 1 min counts as NO; only LC retention time strictly below is YES

Asked: Is LC retention time strictly under 1 min for the entry `NCCc1cnc[nH]1` ?
Given back: YES

Asked: Is LC retention time strictly under 1 min for the entry CCCC(=O)OC(CC(=O)[O-])C[N+](C)(C)C (stereo not given) ?
Given back: NO

Asked: Is LC retention time strictly under 1 min for the entry CN1C(=O)C(O)CC1c1cccnc1 (stereo not drawn) [trans-3-hydroxycotinine] ?
Given back: NO

Asked: Is LC retention time strictly under 1 min for the entry `O=c1cc[nH]c(=O)[nH]1` ?
Given back: NO

Asked: Is LC retention time strictly under 1 min for the entry O=C(O)CNC(=O)C1=CCCCC1 [tetrahydrohippuric acid] ?
Given back: NO

---
Asked: Is LC retention time strictly under 1 min for the entry `O=C(O)CC(=O)O` ?
Given back: NO

Asked: Is LC retention time strictly under 1 min for the entry CC(=O)NCCC(=O)NC(Cc1cnc[nH]1)C(=O)O (stereo not given) ?
Given back: NO

Asked: Is LC retention time strictly under 1 min for the entry NC(Cc1ccc(O)cc1)C(=O)O (stereo not given) ?
Given back: NO

Asked: Is LC retention time strictly under 1 min for the entry `NCCS(=O)(=O)O` ?
Given back: YES

====

# LC retention time listing for each entry below
Assay: RP, Thermo Scientific Hypersil GOLD, 150 × 2.1 mm, 1.9 µm, 0.5 mL/min, estimated dead time 0.66 min; A: water + 0.1% formic acid, pH 3; B: acetonitrile + 0.1% formic acid, pH 3; gradient (min/%B) 0/0 2/0 13/100 15.5/100 19/0
Conditions: stereoisomer not certain
All answers are understood in min, so give the number only.

Below, each entry is followed by its recorded LC retention time result.
Asked: Which LC retention time value is on record for CC(=O)Nc1ccn(C2OC(CO)C(O)C2O)c(=O)n1 (centres undefined) [N4-acetylcytidine] ?
Given back: 4.6

Asked: Which LC retention time value is on record for O=C(O)CNC(=O)c1ccc(O)cc1 [p-hydroxyhippuric acid] ?
Given back: 4.9

---
Asked: Which LC retention time value is on record for CC(CCC(=O)O)C1CCC2C3C(O)CC4CC(O)CCC4(C)C3CC(O)C12C (centres undefined) [cholic acid] ?
Given back: 9.2

Asked: Which LC retention time value is on record for [NH3+]CC(=O)N1CCCC1C(=O)[O-] (centres undefined) [Gly-Pro] ?
Given back: 1.1

Asked: Which LC retention time value is on record for NCCc1c[nH]c2ccccc12 [tryptamine] ?
Given back: 5.7

Asked: Which LC retention time value is on record for Cc1ccc(C(=O)NCC(=O)O)cc1 [4-methylhippuric acid (para-methylhippuric acid)] ?
Given back: 6.7

Asked: Which LC retention time value is on record for NC(=O)CCC(NC(=O)Cc1c[nH]c2ccccc12)C(=O)O (centres undefined) [indoleacetyl glutamine] ?
Given back: 6.1
